Below is a list of entries, each paired with its recorded inhibition value.
- system: UniProt Q63634
- Sequence (Q63634 whole entry): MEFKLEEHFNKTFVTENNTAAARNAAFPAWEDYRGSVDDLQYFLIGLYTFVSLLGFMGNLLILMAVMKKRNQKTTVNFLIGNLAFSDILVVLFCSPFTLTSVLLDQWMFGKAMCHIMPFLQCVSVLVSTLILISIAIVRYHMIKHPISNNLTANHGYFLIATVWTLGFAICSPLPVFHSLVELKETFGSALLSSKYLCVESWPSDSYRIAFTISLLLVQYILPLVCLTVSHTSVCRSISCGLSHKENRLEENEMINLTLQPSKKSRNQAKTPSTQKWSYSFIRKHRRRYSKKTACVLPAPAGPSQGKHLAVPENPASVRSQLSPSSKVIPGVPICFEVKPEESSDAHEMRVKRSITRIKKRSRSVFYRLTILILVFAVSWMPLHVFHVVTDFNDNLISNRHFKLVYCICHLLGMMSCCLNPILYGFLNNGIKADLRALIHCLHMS
- procedure-summary: Inhibition of PYY effect on forskolin-stimulated cyclic AMP formation in C6 cells expressing rat NPY Y5 receptor
- Assay type: functional, cell-based
- Parameters: concentration or dose not given beside the values
- assay-context: concentration not given here
Value expressed in %; do not type the unit.

Consider the reported inhibition for these molecules:
O=C(CN1CCC(N2C(=O)OCc3cc(Cl)ccc32)CC1)Nc1ccc2c(c1)C(=O)c1ccccc1-2 :: 94
O=C(CN1CCC(N2C(=O)OCc3cc(Cl)ccc32)CC1)Nc1ccc2c(c1)-c1ccccc1C2=O :: 100
Cn1c2ccccc2c2cc(NC(=O)CN3CCC(N4C(=O)OCc5ccccc54)CC3)ccc21 :: 88.7

Recorded inhibition for "Cc1ccc2c(c1)COC(=O)N2C1CCN(CC(=O)Nc2ccc3c(c2)C(=O)c2ccccc2-3)CC1" with UniProt Q63634, please?
93.9
